Test system: LOC_OS02G08530-cb003;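 further: purified Escherichia coli-expressed rice kinase domain construct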
run.description: thermal shift delta Tm vs DMSO control; higher = stronger stabilization (binding)
stated.conditions: 12.5 µM; protein concentration 2 µM
readout.kind: thermal shift delta Tm

{"compound": "COc1cc(Nc2ncc(F)c(Nc3ccc4c(n3)N(COP(=O)(O)O)C(=O)C(C)(C)O4)n2)cc(OC)c1OC [R788 (Fostamatinib) Disodium]", "measured.result": "0.82 °C"}
{"compound": "CC(C)(C)S(=O)(=O)c1ccc2nccc(Nc3n[nH]c4ccc(F)cc34)c2c1", "measured.result": "0.61 °C"}
{"compound": "O=C(O)c1ccc2c3c1cccc3c(=O)n1c3ccccc3nc21", "measured.result": "0.93 °C"}
{"compound": "COc1cc2c(Oc3ccc(NC(=O)C4(C(=O)Nc5ccc(F)cc5)CC4)cc3F)ccnc2cc1OCCCN1CCOCC1", "measured.result": "1.31 °C"}
{"compound": "O=c1cc(N2CCOCC2)oc2c(-c3ccccc3)cccc12", "measured.result": "0.91 °C"}
{"compound": "c1cn2cc(-c3ccc4cn[nH]c4c3)nc(Nc3ccc(N4CCOCC4)cc3)c2n1", "measured.result": "3.77 °C"}
{"compound": "C=CC(=O)Nc1cccc(Nc2nc(Nc3ccc(N4CCN(C(C)=O)CC4)cc3OC)ncc2C(F)(F)F)c1", "measured.result": "5.28 °C"}
{"compound": "Cc1nc2ccc(-n3ncc(C(=O)c4cc5ccccc5[nH]4)c3N)cc2[nH]1", "measured.result": "1.17 °C"}
{"compound": "NC1(c2ccc(-c3nc4ccn5c(=O)[nH]nc5c4cc3-c3ccccc3)cc2)CCC1", "measured.result": "0.46 °C"}
{"compound": "CN(C)CCOc1ccc(-c2nc(-c3ccncc3)c(-c3ccc4c(c3)CC/C4=N\\O)[nH]2)cc1", "measured.result": "0.96 °C"}
{"compound": "Cc1c(CN2CCN(C(=O)[C@H](C)O)CC2)sc2c(N3CCOCC3)nc(-c3cnc(N)nc3)nc12", "measured.result": "1.01 °C"}
{"compound": "COc1nccc(-c2c(-c3ccc(F)cc3)ncn2C2CCC(O)CC2)n1 (configuration not stated)", "measured.result": "0.39 °C"}
{"compound": "CC(C)(O)CC(=O)NCCn1ccc2ncnc(Nc3ccc(Oc4cccc(C(F)(F)F)c4)c(Cl)c3)c21", "measured.result": "0.93 °C"}
{"compound": "CC(=O)O/N=C1/C(c2c(O)[nH]c3cc(Br)ccc23)=Nc2ccccc21", "measured.result": "2.87 °C"}
{"compound": "CC#CC(=O)N1CCC[C@H]1c1nc(-c2ccc(C(=O)Nc3ccccn3)cc2)c2c(N)nccn12", "measured.result": "0.89 °C"}
{"compound": "O=C(Nc1ccccc1C(=O)NC1CCCCNC1=O)c1cc2ccccc2s1 (configuration not stated)", "measured.result": "0.19 °C"}
{"compound": "O=c1cc(N2CCOCC2)oc2c(-c3ccc4c(c3)OCCO4)csc12", "measured.result": "0.62 °C"}
{"compound": "COc1ccc(-c2ccc3c(N4CCOCC4)nc(N4C[C@@H](C)O[C@@H](C)C4)nc3n2)cc1CO", "measured.result": "0.4 °C"}
{"compound": "CN1CCC(Nc2nc(Nc3ccc(Oc4ccccc4)cc3)c3c(=O)[nH]cc(Br)c3n2)CC1", "measured.result": "3.25 °C"}
{"compound": "CCN(CC)CCNC(=O)c1c(C)[nH]c(/C=C2\\C(=O)Nc3ccc(F)cc32)c1C [Sunitinib Malate]", "measured.result": "5.21 °C"}
{"compound": "O=C(O)c1ccc2c(c1)nc(Nc1cccc(Cl)c1)c1ccncc12", "measured.result": "1.24 °C"}
{"compound": "C1=N/C2=N/c3ccc(OCCN4CCCC4)c(c3)COC/C=C/COCc3cccc(c3)C(=C1)N2 [Pacritinib (SB1518)]", "measured.result": "4.85 °C"}
{"compound": "COc1cc(Nc2ncc(F)c(Nc3ccc4c(n3)NC(=O)C(C)(C)O4)n2)cc(OC)c1OC [R406 (free base)]", "measured.result": "4.18 °C"}
{"compound": "CN1CCN(c2ccc3nc(-c4c(N)c5c(F)cccc5[nH]c4=O)[nH]c3c2)CC1 [Dovitinib (TKI-258, CHIR-258)]", "measured.result": "2.72 °C"}
{"compound": "N#Cc1ccc2ncnc(NCCc3ccccc3)c2c1", "measured.result": "2.47 °C"}
{"compound": "CO[C@H]1C[C@@H]2CC[C@@H](C)[C@@](O)(O2)C(=O)C(=O)N2CCCC[C@H]2C(=O)O[C@H]([C@H](C)C[C@@H]2CC[C@H](n3cnnn3)[C@H](OC)C2)CC(=O)[C@H](C)/C=C(\\C)[C@@H](O)[C@@H](OC)C(=O)[C@H](C)C[C@H](C)/C=C/C=C/C=C/1C", "measured.result": "0.56 °C"}
{"compound": "O=C(O)c1ccc(Nc2ncc3c(n2)-c2ccc(Cl)cc2C(c2c(F)cccc2F)=NC3)cc1", "measured.result": "0.39 °C"}
{"compound": "COc1cc(OC)cc(N(CCNC(C)C)c2ccc3ncc(-c4cnn(C)c4)nc3c2)c1", "measured.result": "0.61 °C"}
{"compound": "Cc1n[nH]c2ncc(C(=O)N3CCC[C@H]3c3ccc(Cl)cc3)cc12", "measured.result": "1.34 °C"}
{"compound": "C=CC(=O)N[C@H]1CCOC[C@H]1Nc1ncc2cc(-c3c(Cl)c(OC)cc(OC)c3Cl)ccc2n1", "measured.result": "0.62 °C"}
{"compound": "C[C@@H](N)[C@H]1CC[C@H](C(=O)Nc2ccncc2)CC1", "measured.result": "0.85 °C"}
{"compound": "CC(C)n1ncnc1-c1cn2c(n1)-c1ccc(O[C@@H](C)C(N)=O)cc1OCC2", "measured.result": "0.19 °C"}
